Data origin: patent US9725518B2

test details: Soluble aggregates of transiently expressed antibodies
Type: physicochemical
conditions used: Protein A purified antibody
Assignment: determine reported % soluble aggregate for the given molecules.
Phrase the answer as number then unit, nothing more needed.

molecule	result
J1-65D variant 6: humanised/de-immunised J1-65D: J1-65D_VL_2 + J1-65D_VH_2 (antibody, V domains shown) VH: QVQLVQSGAELKKPGSSVKVSCKASGYTFTDYEMHWVRQAPGQGLEWMGAIQPGGGGTAYAQKFKGRVTLTADKSTSTAYMELSSLRSEDTAVYYCTRRGYDDYPFAYWGQGTLVTVSSASTKGP VL: DIQMTQSPSSLSASVGDRVTITCRASGNIHNYLAWYQQKPGKAPKLLIYNAKTLADAVPSRFSGSGSGTDYTLTISSLQPEDFATYYCQHFWSAPWTFGGGTKLEIKRT	0%
J1-183D variant 5: humanised/de-immunised J1-183D: J1-183D_VL_2 + J1-183D_VH_1 (antibody, V domains shown) VH: QVQLVQSGAELKKPGASVKVSCKVSGYAFTDYAIHWIRQAPGQGLEWMGIINTYYGDSKYNQKFKDRVTMTVDKSTSTAYMELSSLRSEDTAVYYCARGYDGFAYWGQGTLVTVSSASTKGP VL: DIQMTQSPSSLSASVGDRVTITCRTSENIYSYLTWYQQKPGKAPKLLIYNAKTLASGVPSRFSGSGSGTDFTLTISSLQPEDFATYYCQHHYDIPWTFGGGTKLEIKRT	4.38%
J1-65D variant 14: humanised/de-immunised J1-65D: J1-65D_VL_4 + J1-65D_VH_2 (antibody, V domains shown) VH: QVQLVQSGAELKKPGSSVKVSCKASGYTFTDYEMHWVRQAPGQGLEWMGAIQPGGGGTAYAQKFKGRVTLTADKSTSTAYMELSSLRSEDTAVYYCTRRGYDDYPFAYWGQGTLVTVSS VL: DIQMTQSPSSLSASVGDRVTITCRASQGIHNYLAWYQQKPGKAPKLLIYNAKTLADAVPSRFSGSGSGTDYTLTISSLQPEDFATYYCQQFWSAPWTFGQGTKLEIK	6.61%

Here's the next entry for you.
# lookup: % soluble aggregate of J1-65D variant 13: humanised/de-immunised J1-65D: J1-65D_VL_4 + J1-65D_VH_1 (antibody, V domains shown) VH: QVQLVQSGAELKKPGSSVKVSCKASGYTFTDYEMHWVRQAPGQGLEWMGAIQPGGGGTAYNQKFKGRVTLTADKSTSTAYMELSSLRSEDTAVYYCTRRGYDDYPFAYWGQGTLVTVSS VL: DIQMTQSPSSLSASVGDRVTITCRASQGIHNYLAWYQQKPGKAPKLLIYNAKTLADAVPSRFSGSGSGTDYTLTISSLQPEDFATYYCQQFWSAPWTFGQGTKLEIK
2.82%
